test: HILIC, Merck SeQuant ZIC-HILIC, 25 °C, 0.25 mL/min; A: water + 16 mM ammonium formate; B: acetonitrile + 0.1% formic acid, pH 3; gradient (min/%B) 0/97 2/97 10/70 15/10 17/10 18/97 25/97; conditions: stereoisomer not certain
OBSERVATION TYPE: LC retention time (min)

{"MOLECULE": "O=C(O)CO [GLYCOLATE]", "UOM": "min", "LC retention time": 4}
{"MOLECULE": "N[C@@H](Cc1cnc[nH]1)C(=O)O", "UOM": "min", "LC retention time": 15.8}

(a) Nc1ncnc2c1ncn2C1OC(COP(=O)(O)O)C(O)C1O (centres undefined) [ADENOSINE-MONOPHOSPHATE]
(b) CCC(C)C(=O)C(=O)O (centres undefined) [3-METHYL-2-OXOVALERATE]
(c) NC(=O)C=CC(=O)O [MALEAMATE]
Your job: order these 3 records by LC retention time, ascending. A ranking is expressed here by listing the labels in the requested order. b, c, a

(I) NCC(=O)NCC(=O)O
(II) O=c1cc[nH]c(=O)[nH]1
Please indicate which entry, I or II , has the lower recorded LC retention time value. Answer = label. II
